# Target or test system: T1, human a-PD-L1 Fc (Sino Biological, 10084-H02H, LC11NO2402) (human, UniProt Q9NZQ7 19-239)
# T1 construct: Bought Fc fusion immobilised on the SPR chip; Printed as 'a-PD-L1 Fc' but used as the antigen (ligand) for the anti-PD-L1 scFvs; also called Human PD-L1; not shown: Fc part
# T1 sequence (Q9NZQ7 19-239 limits assumed): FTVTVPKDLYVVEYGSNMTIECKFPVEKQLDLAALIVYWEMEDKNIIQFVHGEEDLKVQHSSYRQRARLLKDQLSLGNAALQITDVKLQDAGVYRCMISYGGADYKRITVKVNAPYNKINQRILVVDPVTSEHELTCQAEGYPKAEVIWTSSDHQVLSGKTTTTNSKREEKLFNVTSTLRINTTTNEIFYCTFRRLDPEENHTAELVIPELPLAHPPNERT
# Assay details: SPR, PD-L1 Fc immobilised, scFv analyte, 1:1 fit
Property: pKd
Lab note: report pKd as minus log10 of the concentration in molar units, number only.

| Binder | pKd |
| --- | --- |
| PRO2934 (scFv 37-20-B03-sc09.1_(L144K, S148L)) (scFv, PRO2230 variant; VH substitutions, AHo numbering; also called PRO2230 L144K-S148L) scFv: DIQMTQSPASLSASVGDRVTITCQASQSIGTYLAWYQQKPGKPPKLLIYRAFILASGVPSRFSGSGSGTDFTLTISSLQPEDFATYYCQSNFYSDSTTIGPNAFGTGTKVTVLGGGGGSGGGGSGGGGSGGGGSEVQLVESGGGLVQPGGSLRLSCAASGFSFNSDYWIYWVRQAPGKGLEWIASIYGGSSGNTQYASWAQGRFTISRDNSKNTVYLQMNSLRAEDTAVYFCARGYVDYGGATDLWGQGTKVTVLS | 10.74 |

Attention now turns to another entry.
[Q] Query: pKd; subject: PRO3307 (scFv 37-20-B03-sc09.1_(L12A, T101S, L144A, T146R)) (scFv, PRO2230 variant; VH substitutions, AHo numbering; also called PRO2230 L12A-T101S-L144A-T146R) scFv: DIQMTQSPASLSASVGDRVTITCQASQSIGTYLAWYQQKPGKPPKLLIYRAFILASGVPSRFSGSGSGTDFTLTISSLQPEDFATYYCQSNFYSDSTTIGPNAFGTGTKVTVLGGGGGSGGGGSGGGGSGGGGSEVQLVESGGGAVQPGGSLRLSCAASGFSFNSDYWIYWVRQAPGKGLEWIASIYGGSSGNTQYASWAQGRFTISRDNSKNTVYLQMNSLRAEDSAVYFCARGYVDYGGATDLWGQGTAVRVSS
[A] 10.57
